Listed here are molecules together with their documented % inhibition apPOL 180'.
- target_or_test_system: P. falciparum apicoplast DNA polymerase (Pf-apPOL) (Plasmodium falciparum, UniProt Q8ILY1)
- Sequence (Q8ILY1 entry or part of it): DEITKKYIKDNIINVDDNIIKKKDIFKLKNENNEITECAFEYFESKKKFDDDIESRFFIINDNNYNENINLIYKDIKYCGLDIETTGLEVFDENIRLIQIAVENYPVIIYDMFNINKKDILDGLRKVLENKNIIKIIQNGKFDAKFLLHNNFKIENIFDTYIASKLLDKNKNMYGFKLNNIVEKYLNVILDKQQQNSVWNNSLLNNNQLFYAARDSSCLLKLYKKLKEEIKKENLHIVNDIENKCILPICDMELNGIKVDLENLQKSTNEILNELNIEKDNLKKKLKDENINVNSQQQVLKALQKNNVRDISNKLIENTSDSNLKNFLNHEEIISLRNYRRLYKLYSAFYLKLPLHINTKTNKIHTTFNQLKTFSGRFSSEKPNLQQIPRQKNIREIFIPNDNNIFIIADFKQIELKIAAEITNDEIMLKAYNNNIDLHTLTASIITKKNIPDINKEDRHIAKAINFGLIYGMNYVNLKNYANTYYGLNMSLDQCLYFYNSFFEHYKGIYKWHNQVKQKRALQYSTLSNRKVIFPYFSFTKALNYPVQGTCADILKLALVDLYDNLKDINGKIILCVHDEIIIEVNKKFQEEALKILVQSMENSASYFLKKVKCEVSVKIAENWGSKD
- experimental_protocol: Fluorescence-based high-throughput DNA polymerase assay (molecular beacon), primary screen and dose-response;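 also: test concentration in µM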
- Format: biochemical
- condition_context: DRC-1; concentration 5; 180'
Number in %, nothing else.

Could you share which % inhibition apPOL 180' value was measured for O=C(O)c1nc(-c2ccccc2)nc2c1OCO2 ?
-4.7971

What % inhibition apPOL 180' value was documented for this molecule, COc1ccc(-c2occ(C(=O)O)c2C(=O)O)cc1 ?
12.9539

I'd like to know its % inhibition apPOL 180'. The molecule in question is O=C(Nc1c2c(nn1-c1ccccc1)CSC2)c1ccco1
1.991

Sample COc1cc(/C=C2\C(=O)N(c3ccc(C(=O)O)cc3)N=C2C(F)(F)F)ccc1OCC(C)C — what was its % inhibition apPOL 180'?
-5.844

Which % inhibition apPOL 180' reading was recorded for the molecule CCCN1COc2ccc3c(=O)c(-c4ccccc4)coc3c2C1 ?
17.5775

Can you share its % inhibition apPOL 180'? I mean this molecule: Cc1ccc(C2=N/C(=C\c3ccc(I)o3)C(=O)O2)cc1[N+](=O)[O-]
1.084

For the molecule shown here, CCCCCc1c2c(cc(O)c1C(=O)O)OC(=O)c1c(cc(OC)cc1C(=O)CCCC)O2 , give the reported % inhibition apPOL 180'.
11.4977

I have this molecule here, Cc1cc(C)nc(Nc2nc(CC(=O)Nc3nc(-c4ccco4)cs3)cs2)n1 , and I need its recorded % inhibition apPOL 180'.
-5.24

Which % inhibition apPOL 180' is reported for this molecule? CCc1ccccc1NC(=O)c1ccc(-c2ncccc2NC(C)=O)cc1
-1.7806

Data request, read-out % inhibition apPOL 180', for CCOc1ccc2cc(C3=NN(C(=O)CCC(=O)O)C(c4ccc(C)cc4)C3)c(=O)[nH]c2c1 (centres unmarked)
-5.456

* * *

- target_or_test_system: P. falciparum apicoplast DNA polymerase (Pf-apPOL) (Plasmodium falciparum, UniProt Q8ILY1)
- experimental_protocol: Fluorescence-based high-throughput DNA polymerase assay (molecular beacon), primary screen and dose-response;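 also: test concentration in µM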
- Assay type: biochemical
- condition_context: DRC-2; 180'; concentration 20
quantity_measured: % inhibition apPOL 180'

[[record]]
compound = "O=C(Nc1cccc(Cl)c1)Nc1nnc(-c2ccncc2)s1"
result = "60%"

[[record]]
compound = "CCCCCCCCCCCC1SCC(C(=O)O)N1C(C)=O (stereo not drawn)"
result = "34%"

[[record]]
compound = "Cc1nc(/N=N/c2ccc(C(=O)[O-])cc2)c(COP(=O)([O-])[O-])c(C=O)c1O.[Na+].[Na+].[Na+]"
result = "48%"

[[record]]
compound = "COc1ccc(-c2c(C(F)(F)F)nn3c(=O)cc(-c4cccc([N+](=O)[O-])c4)[nH]c23)cc1"
result = "65%"

[[record]]
compound = "N#CC(=NNc1cc(C(F)(F)F)cc(C(F)(F)F)c1)C(=O)c1ccco1"
result = "52%"


Bench note: what % inhibition apPOL 180' did COc1ccccc1CC(=O)N1CCc2c(nc3cc(-c4ccccc4Cl)[nH]n3c2=O)C1 show?
44%

% inhibition apPOL 180' for O=C1c2ccccc2C(=O)N1Oc1ccc([N+](=O)[O-])c([N+](=O)[O-])c1 ?
32%

Reported % inhibition apPOL 180' for CCOC(=O)C1=C2c3cc(OC)c(OC)cc3CC(C)(C)N2C(=O)C1=O : what is it?
46%

Fill blank: measured % inhibition apPOL 180' of the compound O=c1cc(-c2ccccc2Cl)oc2c(NS(=O)(=O)c3cc(Cl)cc(Cl)c3O)ccc(O)c12 is ____.
3.69%

Would you kindly share the measured % inhibition apPOL 180' for O=C(Nc1cccc(C(=O)Nc2ccc(S(=O)(=O)[O-])c3cc(S(=O)(=O)[O-])cc(S(=O)(=O)[O-])c23)c1)Nc1cccc(C(=O)Nc2ccc(S(=O)(=O)[O-])c3cc(S(=O)(=O)[O-])cc(S(=O)(=O)[O-])c23)c1.[Na+].[Na+].[Na+].[Na+].[Na+].[Na+] ?
58%
